Measured Classical:trans signalling ratio intracellular signalling values are reported for all entries that follow.
subjectOfTest: T1, human soluble IL-6R (human, UniProt P08887 20-357)
T1 sequence: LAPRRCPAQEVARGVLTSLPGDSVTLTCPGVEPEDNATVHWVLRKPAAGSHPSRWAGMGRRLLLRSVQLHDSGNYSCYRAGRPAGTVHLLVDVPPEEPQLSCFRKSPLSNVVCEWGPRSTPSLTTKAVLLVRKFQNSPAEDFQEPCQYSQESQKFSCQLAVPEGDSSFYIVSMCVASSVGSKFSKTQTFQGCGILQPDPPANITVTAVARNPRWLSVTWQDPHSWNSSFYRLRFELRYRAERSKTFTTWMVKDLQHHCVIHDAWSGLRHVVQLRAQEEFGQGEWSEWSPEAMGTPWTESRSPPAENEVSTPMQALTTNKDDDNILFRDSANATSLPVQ
procedureDetails: cell-based or functional assay
The response must be a number in ratio with no trailing unit.

Some binders with known Classical:trans signalling ratio intracellular signalling results, for comparison:
binder: candidate anti-IL-6R Fab clone 20 (Fab, V domains shown) VH: EVKLMESGGGLVQPGGSLKLSCAASGFTFSNYGMSWVRQTPDKRLELVAIINSNGGSTYYPDSVKGRFTISRDNAKNTLYLQMSSLKSEDTAIYYCARDGNFVSDYWGQGTTLTVSS VL: DIVLTQSPASLAVSLGQRATISCRASESVDSYGNRFLNWYQQKPGQPPKLLIYLASNLESGVPARFSGSGSRTDFTLTIDPVEADDAATYYCQQNNEDPYTFGGGTKLEIK
measured: 3

binder: candidate anti-IL-6R Fab clone 07 (Fab, V domains shown) VH: EVKLVESGGGLVQPGGSLKLSCAASGFTFSSYAMSWVRQTADKRLELVANINSNGGSTYYPDSVKGRFTISRDNAKNTLFLQMSSLKSEDTAMYYCAREGYYTMDYWGQGTSVTVSS VL: DIVLTQSPASLAVSPGQRATISCRASESVDSYGNSFMNWYQQKPGQPPKLLIYLASNLESGVPARFSGSGSRTDFTLTIDPVEADDAATYYCQQNNEDPYTFGGGTKLEIK
measured: 2.8

binder: candidate anti-IL-6R Fab clone 12 (Fab, V domains shown) VH: EVKLMESGGGLVQPGGSLKLSCAASGFTFSNYGMSWVRQTPDKRLEWVANINSNGGSTYYPDSVKGRFTISRDNAQNTLYLQMSSLKSEDTAMYYCTRDGNFVSDYWGQGTTLTVSS VL: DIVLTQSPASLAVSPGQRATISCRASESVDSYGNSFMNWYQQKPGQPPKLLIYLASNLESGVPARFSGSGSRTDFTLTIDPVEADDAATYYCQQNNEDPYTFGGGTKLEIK
measured: 2.1

Here's the next entry for you.
Entry candidate anti-IL-6R Fab clone 19 (Fab, V domains shown) VH: EVKLMESGGGLVQPGGSLKLSCAASGFTFSNYGMSWVRQTPDKRLELVAIMNSKGGSTYYPDSVMGRFTISRDNAKNTLYLQMSSLKSEDTAMYYCARDGYYTMDYWGQGTSVTVSS VL: DIVLTQSPASLAVSLGQRATISCRASKSVDSFGNSFMHWYQQKPGQSPRLLIFLASNLESGVPARFSGSGSRTDFTLTIDPVEADDAATYYCQQNNEDPYTFGGGTKLEIK — recorded Classical:trans signalling ratio intracellular signalling = 3
